molecule	melting point
Nc1cccc(OCC(=O)N2CCCC2)c1	101 to 103 °C
Brc1ccc2c(c1)CCCCN2	52 to 54 °C
CCOC(=O)c1oc2c(Cl)cccc2c1C	63 to 65 °C
Oc1cc(Cl)cnc1Br	144 to 146 °C
O=C1Nc2cc(I)ccc2C1=O	264 to 266 °C
CC(C)n1nnc(C(=O)O)c1C(F)(F)F	99 to 101 °C
NS(=O)(=O)N1CCc2ccccc2C1	159 to 161 °C
COc1ccc(S(=O)(=O)Cl)cc1C1(C)NC(=O)NC1=O (centres undefined)	214 to 216 °C
NC(=O)C1COCCN1 (centres undefined)	168 to 170 °C
O=C(c1ccc(F)cc1)N1CCNCC1	74 to 76 °C
CN1C(=O)c2ccc(N)cc2C1=O	247 to 249 °C
CC(=O)N(C)c1nc(CCl)cs1	139 to 141 °C
CC(N)C(O)c1ccc(F)cc1 (centres undefined)	87 to 89 °C
Cc1ccc(-c2nc(N)sc2C)s1	127 to 129 °C
O=C(O)Cc1ccc(NC(=O)c2cc3ccccc3o2)cc1	189 to 191 °C
OCc1nc(Cc2ccc(F)cc2)no1	53 to 55 °C
CC(=O)c1nnn(-c2ccc(C)cc2)c1C	111 to 113 °C
O=C(NCCCN1CCCC1)OCC(F)(F)F	36 to 38 °C
Nn1c(=O)[nH]c2ccccc2c1=O	297 to 299 °C
Cc1cc(Br)c(C(=O)O)cn1	119 to 121 °C
CCOC(=O)c1c(C2CCCCC2)csc1N	109 to 111 °C
O=C(O)CCOc1ccc2ccccc2c1	66 to 68 °C
Cn1cc(C(N)=S)cn1	189 to 191 °C
Nn1c(S)nnc1Cc1ccccc1	179 to 181 °C
Cc1cccc(N2N=C(C(=O)O)CCC2=O)c1	152 to 154 °C
O=C(O)c1cc([N+](=O)[O-])ccc1I	194 to 196 °C
N#Cc1ccccc1COc1cccc(C(=O)O)c1	181 to 183 °C
CC(C)c1ccc(-n2nnnc2S)cc1	100 to 102 °C
CCC(=O)c1cnccc1N	134 to 136 °C

* * *

molecule	melting point
N#Cc1cccc(Cn2ccnc2)c1	65 to 67 °C
Cc1cc(F)c(S(N)(=O)=O)cc1[N+](=O)[O-]	159 to 161 °C
O=C(O)CN1C(=O)COc2ccccc21	229 to 231 °C
CC1CCc2[nH]c3ccc(C(=O)O)cc3c2C1 (stereo unspecified)	218 to 220 °C
CCOC(=O)c1c(C)nn(C)c1N	101 to 103 °C
O=C(O)c1cccc(NC(=O)C2CCCCC2)c1	228 to 230 °C
O=C(O)c1cc(Cl)c2c(c1)OCCCO2	195 to 197 °C
CCCn1c(=O)n(CC(=O)O)c2ccccc21	173 to 175 °C
O=C(CCl)NCC(=O)c1cccs1	133 to 135 °C
NC(=O)Cc1cccc(O)c1	114 to 116 °C
O=C(NCCO)c1ccc(O)cc1	155 to 157 °C
Cc1nn(-c2ncc(C(F)(F)F)cc2Cl)c(C(F)(F)F)c1C(=O)O	167 to 169 °C
Nc1nncc(-c2cc(F)ccc2F)n1	239 to 241 °C
Fc1ccc(F)c2c(Cl)ccnc12	154 to 156 °C
COCCOc1cc2c(cc1CO)OCO2	56 to 58 °C
O=C(O)Cc1ccc(NS(=O)(=O)c2ccc(F)cc2)cc1	180 to 182 °C
CC(=O)c1ccc(Cl)c(F)c1	39 to 41 °C
CCC(C)C(=O)NCC(=O)O (stereo unspecified)	101 to 104 °C
Cc1ccsc1-c1nnc(N)[nH]1	189 to 191 °C
N#CC=Cc1cccnc1	104 to 106 °C
Cc1ccc(S(=O)(=O)N(C)c2ccc(C(=O)O)cc2)cc1	188 to 190 °C
C=CC(CC(=O)O)c1ccccc1 (stereo unspecified)	39 to 41 °C
CCCc1cc(=O)[nH]c(CCC)n1	69 to 71 °C
NS(=O)(=O)c1cc(C(F)(F)F)ccc1F	127 to 129 °C
CN(C(=O)CCl)C(C)(C)C#N	55 to 57 °C
O=C(Cc1ccc(F)cc1)N1CCNCC1	65 to 67 °C
COc1ccccc1C(N)c1nccn1C (stereo unspecified)	78 to 80 °C
Nc1nc(-c2ccc(Oc3ccccc3)cc2)cs1	195 to 197 °C
CCN(CC)S(=O)(=O)c1ccc(C)c(C(=O)O)c1	140 to 142 °C
O=C(O)c1ccc(Cn2cc(Br)cn2)o1	128 to 130 °C
CC(=CC(=O)O)c1cccc(C(F)(F)F)c1	135 to 137 °C
NNC(=S)NCC(F)(F)F	158 to 160 °C
O=C(Nc1cnccn1)c1ccc(I)cc1	196 to 198 °C
CC(C)(C)NS(=O)(=O)c1ccccc1NN	122 to 124 °C
O=C(O)c1nccnc1C(=O)Nc1ccc(Cl)cc1	178 to 180 °C
CN(CC(=O)O)c1ccc(Cl)cn1	135 to 137 °C
C=CCNc1nc(C(=O)OCC)cs1	84 to 86 °C
CNC1CCN(c2ccc(Cl)cc2)CC1	49 to 51 °C
COc1ccccc1CNC(=O)C(C)Cl (stereo unspecified)	113 to 115 °C
NNc1cccc(F)c1F	61 to 63 °C
O=C(O)c1cc(/C=C/c2ccc(Br)cc2)nc2ccc(Br)cc12	309 to 311 °C
O=C(O)c1c[nH]c2ccc(F)cc12	225 to 227 °C
Cc1cc(Br)ccc1SCC(=O)O	125 to 127 °C
COc1cc(C=O)c([N+](=O)[O-])cc1OCC(F)F	139 to 141 °C
O=C(O)c1cc(-c2ccc(Cl)s2)[nH]n1	231 to 233 °C
O=C(O)c1cc(OC(F)F)cc(OC(F)F)c1	79 to 81 °C
O=C(O)C(=O)C=Cc1cccs1	114 to 116 °C
O=C(CN1C(=O)CCC1=O)c1ccccc1	144 to 146 °C
Cc1c(C(=O)O)sc2nc(C(F)(F)F)ccc12	265 to 267 °C
O=C(O)CN1c2cccc3cccc(c23)S1(=O)=O	216 to 218 °C
O=C1CC2(CCCC2)CN1	68 to 70 °C
O=C(O)c1nn(-c2ccccc2F)cc1O	202 to 204 °C
Brc1ccc(-c2nccs2)cc1	45 to 47 °C
Cc1nn(-c2ccccc2)c(C)c1NC(=O)C(C)Cl (stereo unspecified)	134 to 136 °C
O=Cc1cnn2ccccc12	82 to 84 °C
O=S(=O)(Cl)c1ccc2c(c1)COC2	98 to 100 °C

* * *

compound	melting point
CC(C)(C#N)Nc1ccccc1	89 to 91 °C
COC(=O)c1c[nH]c(=O)c([N+](=O)[O-])c1	214 to 216 °C
Cc1cc(C(=O)O)c(C)n1-c1cccc(Cl)c1	160 to 162 °C
Cc1csc(Sc2ccc(C(=O)O)cc2[N+](=O)[O-])n1	207 to 210 °C
Cc1c(C(=O)O)nnn1-c1ccc(OC(C)C)cc1	159 to 161 °C
CC(C)(C)Oc1c(F)cc(N)cc1F	99 to 101 °C
CC(C)(C)C(=O)N1CCC(C(=O)O)CC1	115 to 127 °C
CCN(C)S(=O)(=O)c1c(C)n[nH]c1C	61 to 63 °C
Cn1cc(NS(=O)(=O)c2ccsc2C(=O)O)cn1	239 to 241 °C
ClCC12CC3CC(CC(C3)C1)C2	38 to 42 °C
Nc1cc(F)c(N2CCCC2)c(F)c1	94 to 96 °C
Cc1ccc2cc(C=O)c(Cl)nc2c1	148 to 150 °C
O=Cc1cc(Cl)cc2c1OCC2	85 to 87 °C
Cc1c[nH]c(=O)n1-c1ccc(C(=O)O)cc1	285 to 287 °C
CCc1ccc(C(=O)c2cccc(S(C)(=O)=O)c2)cc1	97 to 99 °C
Nc1cnc(-c2ccccc2)nc1	81 to 83 °C
Cc1cscc1C(=O)O	135 to 137 °C
Cn1ccc(N2CCC(N)C2=O)n1 (configuration not stated)	141 to 143 °C
O=Cc1ccc(N2CCOCC2)c(F)c1	68 to 70 °C
Cc1nc(CCC(=O)O)oc1-c1ccc(Br)cc1	179 to 181 °C
Cc1ccc(CCC(=O)NCC(=O)O)cc1	118 to 120 °C
O=C(O)CSCC(=O)N1CCCCC1	91 to 93 °C
O=C(O)c1cccc(S(=O)(=O)Nc2ccc3c(c2)OCO3)c1	249 to 251 °C
CCOC(=O)c1nnn(-c2cccc([N+](=O)[O-])c2)c1N	151 to 153 °C
Nc1nc2c(OC(F)F)cccc2s1	144 to 146 °C
O=C(O)c1cc2[nH]nnc2cc1F	268 to 270 °C
O=C(NCCO)c1ccccc1	60 to 62 °C
CCNS(=O)(=O)c1ccc(C(=O)O)cc1	219 to 221 °C
Cc1cc(C(=O)CCl)c(C)n1-c1cccc(F)c1	90 to 94 °C
CS(=O)(=O)Cc1ccc(N)cc1	159 to 161 °C
N#Cc1cc2c([nH]c1=O)CCC2	219 to 221 °C
CC(=O)N(C)CCC(N)=S	109 to 111 °C
CNS(=O)(=O)c1ccc2c(c1)NCC2	86 to 88 °C
COc1cccc(C(=O)c2cccnc2)c1	72 to 74 °C
Cc1oc(C(=O)O)cc1S(=O)(=O)Cl	114 to 116 °C
Cc1cc(C(=O)NC2CCCCC2)ccc1N	178 to 180 °C
CN(C)C(=O)Nc1ccc(Cl)c(C(=O)O)c1	214 to 216 °C
Cc1csc(C(O)C(F)(F)F)n1 (configuration not stated)	122 to 124 °C
O=C1CC(=O)N(c2cccnc2)C(=S)N1	229 to 231 °C
Oc1cccc2cn[nH]c12	181 to 183 °C
CC(C)C(O)(C(=O)O)c1ccccc1 (configuration not stated)	148 to 150 °C
Brc1cnc2nccn2c1	201 to 203 °C
FC(F)Oc1ccc(-c2nnc(S)o2)cc1	121 to 123 °C
CC1C=CC2C(=O)N(CC(F)(F)F)C(=O)C2C1C(=O)O (configuration not stated)	166 to 168 °C
O=C(O)CCN1C(=O)c2ccccc2S1(=O)=O	164 to 166 °C
Cc1ccc(-c2nc(CCl)cs2)o1	71 to 73 °C
Cc1ccc(-n2nc(N)cc2C)cc1	99 to 101 °C
CC(C)(C)OC(=O)CNC(=O)CCl	66 to 68 °C
COc1cc(F)c(C(C)=O)cc1OC	92 to 94 °C
CC1(C(=O)O)CCCCN1C(=O)c1ccccc1 (configuration not stated)	187 to 189 °C
c1ccc(C2CNCCS2)cc1 (configuration not stated)	60 to 62 °C
S=C1Nc2ccccc2C2CC=NN12 (configuration not stated)	249 to 251 °C
O=C(NC1CCN(C(=O)CCl)CC1)c1ccccc1	155 to 157 °C
O=C1CS(=O)CCN1 (configuration not stated)	119 to 121 °C
Nc1ncc(-c2ccc(Br)cc2)[nH]1	194 to 196 °C
FC(F)Oc1cccc2cccnc12	64 to 66 °C
Cn1cnnc1-c1ccc(N)nc1	249 to 251 °C

These data points were gathered from a melting point compilation (Tetko et al.).
